Tested on: P94_40
Assay: qHTS profiling for inhibitors of Plasmodium falciparum proliferation (AID 504749); also: nearly all actives have a fitted effect of over 60% in size
Conditions: P. falciparum in erythrocytes, SYBR Green DNA, 72 h; series mostly up to 28.7 µM
Records with an inconclusive call do not appear. The source made the active and inactive calls. Calls follow the shape of the dose curve; as a rule, active = well fitted inhibition curve with a large enough effect; inconclusive = small, poorly fitted or top-dose-only effect; inactive = flat fitted curve, though single readings scatter.
# valid calls are Yes (active), No (inactive); nothing else

Call for entry CCCCCc1ccc(C)cc1O :
No

Outcome logged for CC(CCc1ccc(O)cc1)NCC(O)c1ccc(O)cc1 (centres undefined) in this assay:
No

Recorded call for C=Cc1ccc(S(=O)(=O)O)cc1 ?
No

Could you check what this test reported for NC(N)=NCC1COc2ccccc2O1 (centres undefined) ?
No

Called result for O=C(NNCS(=O)(=O)O)c1ccncc1
No

Recorded call for CCc1ncnc2cc(OC)c(OC)cc12 ?
No

Record request — test call for CC1=CC(=C(c2ccc(N)cc2)c2ccc(N)cc2)C=CC1=N
Yes

# lookup: test call for FC(F)OC(Cl)C(F)(F)F (centres undefined)
No

What classification did CC(C)(C)CC(C)(C)c1cc(Cc2cc(C(C)(C)CC(C)(C)C)cc(-n3nc4ccccc4n3)c2O)c(O)c(-n2nc3ccccc3n2)c1 end up with in this test?
No

How was ClC(Cl)Cl classified in this test?
No

What did the test return for COc1cc(C)c(/C=C/C(C)=C/C=C/C(C)=C/C(=O)O)c(C)c1C ?
No

Please state the recorded outcome for this compound: CC(CN(C)C)CN1c2ccccc2Sc2ccc(C(F)(F)F)cc21 (centres undefined)
Yes

What classification did O=C(CCCN1CCN2CCCC2C1)c1ccc(F)cc1 (centres undefined) end up with in this test?
No

How was FC(F)(F)COCC(F)(F)F classified in this test?
No

How did this test come out for CC(C)[C@H](N)C(=O)OCC(CO)OCn1cnc2c(=O)[nH]c(N)nc21 (some centres undefined) ?
No

Please let me know the test result on file for Cc1nc(NS(=O)(=O)c2ccc(N)cc2)nc(C)c1Br .
No

Outcome logged for C/C(=C\C(=O)OCCCCCCCCC(=O)O)C[C@@H]1OC[C@H](C[C@@H]2O[C@H]2[C@@H](C)[C@H](C)O)[C@@H](O)[C@H]1O in this assay:
Yes

Could you please tell me the result logged for CCCc1ccc(C(=O)O)cc1 in this assay?
No

State the result this test recorded for CCCC(=O)O .
No

Kindly provide the recorded test outcome for the following compound: CC(=O)c1ccc2c(c1)N(CCCN1CCN(CCO)CC1)c1ccccc1S2
Yes

Fill in: this test's call for CC(C)Cc1ccc([C@@H](C)C(=O)NS(C)(=O)=O)cc1 is ___
No

// outcome(item) with item = CC(C)C1=CC2=CC[C@@H]3[C@](C)(CCC[C@@]3(C)C(=O)O)[C@H]2CC1
No

How did this test come out for COc1ccccc1N1CCN(CCCC(=O)c2ccc(F)cc2)CC1 ?
No

Which outcome was assigned to O=C(O)CCC/C=C\C[C@@H]1[C@@H](/C=C/[C@@H](O)COc2cccc(Cl)c2)[C@H](O)C[C@@H]1O in this test?
No

----------
System: CP250
Experiment: qHTS profiling for inhibitors of Plasmodium falciparum proliferation (AID 504749); also: nearly all actives have a fitted effect of over 60% in size
Conditions: P. falciparum in erythrocytes, SYBR Green DNA, 72 h; series mostly up to 28.7 µM
Protocol: NIH National Institute of Allergy and Infectious Diseases [NIAID] NIH Chemical Genomics Center [NCGC] […] Because mature erythrocytes lack DNA, only Plasmodium-derived DNA is detected. NCGC Assay Protocol Summary: The SYBR Green viability assay was adapted from a method described previously (Plouffe et al., 2008). […] The following morning, fluorescence intensity at 485(14) nm excitation and 535(25) nm emission wavelengths was measured on an EnVision (Perkin Elmer) plate reader. […]
Records with an inconclusive call do not appear. Active and inactive are the calls of the source. Calls follow the shape of the dose curve; as a rule, active = well fitted inhibition curve with a large enough effect; inconclusive = small, poorly fitted or top-dose-only effect; inactive = flat fitted curve, though single readings scatter.
Return exactly one item of True = active, False = inactive

# outcome recorded in this test, key = C=C1C(CCl)(CCl)C2(Cl)C(Cl)C(Cl)C1(Cl)C2(Cl)Cl (centres undefined)
True

# fetch the recorded call for OC/C=C/c1ccccc1 here
False

Outcome logged for Cc1cccc(C)c1NC(=O)NC1=CCCN1C in this assay:
False

Entry NC(=O)[C@@H]1CCCN1C(=O)[C@H](Cc1cnc[nH]1)NC(=O)[C@@H]1CCC(=O)N1 : call = ?
False

Kindly provide the recorded test outcome for the following compound: CCOC(=S)SSC(=S)OCC
False

Would you mind telling me which call this test gave CCOC(=O)c1cc(-c2ccccc2)nc2ccc(C)cc12 ?
False

Fill in: this test's call for Cc1cc(=O)c(C(=O)N[C@@H](C(=O)N[C@@H]2C(=O)N3C(C(=O)O)=C(CSc4nnnn4C)CS[C@H]23)c2ccc(O)cc2)c[nH]1 is ___
False

# lookup: test call for CNC(=O)c1c(I)c(C(=O)NCC(=O)Nc2c(I)c(C(=O)O)c(I)c(C(=O)NCCO)c2I)c(I)c(N(C)C(C)=O)c1I
False

Test call for this compound, please: COc1cc(S(C)=O)ccc1-c1nc2ncccc2[nH]1 (centres undefined)
False

What is the recorded call for this compound in the test? CC12CCC(C1)C(C)(C)C2=O (centres undefined)
False

In this assay, the call recorded for CCc1ccc(S(=O)(=O)O)cc1 was what?
False

// param item: C(=C\c1ccncc1)/c1ccccc1 ; yields the recorded call
False

Lab log entry: COc1cc(NCCCC(C)N)c2ncccc2c1 (centres undefined) — outcome as called in the assay?
True

State the result this test recorded for NCC[C@H](O)C(=O)N[C@@H]1C[C@H](N)[C@@H](O[C@H]2O[C@H](CN)CC[C@H]2N)[C@H](O)[C@H]1O[C@H]1O[C@H](CO)[C@@H](O)[C@H](N)[C@H]1O .
False

Write down the call the test reported for this compound. Item: CC(=O)Oc1cccc2c1C(=O)c1c(OC(C)=O)cc(C(=O)O)cc1C2=O
False

Check the results log: what was the call for O=P(O)(O)OC[C@H](O)CO ?
False

Tell me the recorded outcome of this test for Cn1cc(NC(=O)c2cc(NC(=O)c3cc(NC=O)cn3C)cn2C)cc1C(=O)NCCC(=N)N .
True

Short answer needed: outcome of this test for Cc1ccc(S(=O)(=O)NCl)cc1 ?
False

# lookup: test call for O=C(O)[C@H]1C(=CCO)O[C@H]2CC(=O)N12
False

# outcome recorded in this test, key = CN=C1C=CC(=C(c2ccc(N(C)C)cc2)c2ccc(N(C)C)cc2)C=C1
True

I would be grateful if you could indicate the recorded call for COC(=O)CC[C@H](N)C(=O)O .
False

Please state the recorded outcome for this compound: CCOc1ccc(NC(=S)Nc2ccc(OCC)cc2)cc1
False

Could you check what this test reported for CC(=O)Oc1cc(C(F)(F)F)ccc1C(=O)O ?
False

Recorded call for CCCCC(CC)COS(=O)(=O)O (centres undefined) ?
False

For C[C@H](N)C(=O)N[C@@H](C)P(=O)(O)O , which call appears in the assay record?
False

Returns: the outcome recorded for O=S(=O)(O)CC(S)CS (centres undefined) in this assay.
False

Just curious, what result did CCSc1ccc2c(c1)N(CCCN1CCN(C)CC1)c1ccccc1S2 get here?
False

Field: outcome | Entry: CC1CC(O)CC(C)(C)C1 (centres undefined)
False

Call for entry O=C1c2ccccc2C(=O)c2c1ccc(O)c2O :
False

Outcome logged for FCOC(C(F)(F)F)C(F)(F)F in this assay:
False

I'd appreciate the recorded outcome for CC(C)c1ncc([N+](=O)[O-])n1C from this test.
False

For this compound, state the assay outcome: C=Cc1ccc(S(=O)(=O)O)cc1
False

Please share the test call associated with OCCCNc1ccccc1 .
False

Recorded call for CCC(=O)c1ccc2c(c1)N(CCCN1CCN(CCO)CC1)c1ccccc1S2 ?
True

Outcome logged for O=P(O)(O)O in this assay:
False

What was the test verdict on O=C(Nc1ccc(O)cc1)c1ccccc1O ?
False

Recorded test outcome, item C=CC[C@@H]1/C=C(\C)C[C@H](C)C[C@H](OC)[C@H]2O[C@@](O)(C(=O)C(=O)N3CCCC[C@H]3C(=O)O[C@H](/C(C)=C/[C@@H]3CC[C@@H](O)[C@H](OC)C3)[C@H](C)[C@@H](O)CC1=O)[C@H](C)C[C@@H]2OC
True

I would be grateful if you could indicate the recorded call for Oc1cccc(O)c1O .
False

Hey, what did the test say about OCC1(CO)COC(C(Cl)(Cl)Cl)OC1 ?
False

Please indicate how the test categorized CCCCCCCCCCCCCCCCCC(=O)OCC(C)O (centres undefined) .
False

Field: outcome | Entry: COC(=O)[C@@H](N)CS
False

Hi team, can someone confirm the assay call for CCOC(=O)[C@@H](N)CS ?
False

Identify the outcome logged in this assay for the compound shown: CCCCCCCCCCCC(=O)OCC(O)CO (centres undefined)
False

Hello, I am checking results. What call was entered for O=C(O)CCC/C=C\C[C@@H]1[C@@H](/C=C/[C@@H](O)COc2cccc(C(F)(F)F)c2)[C@H](O)C[C@@H]1O ?
False

What classification did CC(C)NCC(O)COc1ccccc1-n1cccc1 (centres undefined) end up with in this test?
False

Could you check what this test reported for CO ?
False

For Cc1cc(C)c(NC(=O)C[C@H](CC(=O)O)c2cccc3ccccc23)c(C(=O)N2CCC3(CCCC3)CC2)c1 , what call appears in the results of this test?
False

What classification did Nc1nc(=O)n([C@@H]2CS[C@H](CO)O2)cc1F end up with in this test?
False

Called result for NCCN
False
